Please respond with reported Pour Point for every item in the list.
- method_notes: Pour point (thermophysical properties)
- Assay type: physicochemical
One number for each entry, in °C.

These recorded examples may help you get a feel for the data.
compound	unit_text	Pour Point
O=C(C(F)(F)C(F)(F)F)C(F)(C(F)(F)F)C(F)(F)F	°C	−108
FC(F)(F)C1(F)OC1(F)C(F)(C(F)(F)F)C(F)(F)F (stereo not shown)	°C	−145
FC1(F)C(F)(F)C(F)(F)C2(F)OC2(F)C1(F)F (stereo not shown)	°C	−88

INPUT: Using the record for CCOC(F)(C(F)(F)C(F)(F)C(F)(F)F)C(F)(C(F)(F)F)C(F)(F)F (stereo not shown) , report its Pour Point.
OUTPUT: −100
